# cell viability per entry
Tested on: SEM cells
Test: cell viability relative to DMSO control; higher = less cytotoxic
Conditions: RPMI 5 mM glucose + 10% dialyzed FBS; 48 h; 15.4 µM
Number in %, nothing else.

Record excerpt, results attached:
### Prompt What value of measured cell viability is listed for C[C@]12CC[C@H]3[C@@H](CCC/4=C/C(=O)CC[C@]34C)[C@@H]1CC[C@@H]2O ?
### Response 131

### Prompt What value of measured cell viability is listed for CN1c2ccccc2C(=O)N2CCc3c([nH]c4ccccc34)C21 (stereo not given) ?
### Response 89.1

### Prompt What value of measured cell viability is listed for Cc1ccc([S+](=O)([O-])Nc2nc3ccccc3nc2Nc2ccc3nsnc3c2)cc1 ?
### Response 61.8

Next:
### Prompt What value of measured cell viability is listed for NCCCCNCCCN ?
### Response 21.4

### Prompt What value of measured cell viability is listed for N#Cc1ccnc(Nc2cc(C3CCN(C4COC4)CC3)cc(N3CCC(F)(F)C3)n2)c1 ?
### Response 25.5
